These data points were gathered from a melting point compilation (Tetko et al.).

Parameter melting point: see the listing below.
Measured Attribute: melting point

>>> assay_value("O=C(O)c1[nH]c2ccccc2c1Br")
"185 to 188 °C"
>>> assay_value("CCOC(=O)CC(=O)c1cccc([N+](=O)[O-])c1")
"75 to 77 °C"
>>> assay_value("c1cc2c3c(cccc3c1)-c1nc3ccccc3nc1-2")
"239 to 242 °C"
>>> assay_value("Oc1cc(Br)cc(Br)c1")
"81 °C"
>>> assay_value("COc1ccc(C=C2N=C(c3ccccc3)OC2=O)cc1")
"151 to 152 °C"
>>> assay_value("Nc1ccccc1C(=O)Nc1ccccc1")
"132 °C"
>>> assay_value("COc1cc(C(=O)c2cccc(C)c2)c([N+](=O)[O-])cc1OC")
"121 °C"
>>> assay_value("CCCN=C=O")
"-30 °C"
>>> assay_value("COC(=O)c1cocc1C(=O)OC")
"42 to 47 °C"
>>> assay_value("O=C(CI)OC(=O)CI")
"43 to 49 °C"
>>> assay_value("O=C(O)c1cnn(-c2ccccc2)c1C(F)(F)F")
"139 to 141 °C"
>>> assay_value("CN(C=O)c1ccc(C(=O)O)cc1")
"217 to 221 °C"
>>> assay_value("FC(F)=C(Cl)C(F)(F)F")
"-130 °C"

====

melting point: recorded values
Measured Attribute: melting point (°C)

>>> assay_value("CCC(=Cc1ccccc1)[N+](=O)[O-]")
90.5
>>> assay_value("CC12CCC3C4CCC(=O)C=C4CCC3C1CCC2OC(=O)CCc1ccccc1 (stereo unspecified)")
118
>>> assay_value("ClCCC(Cl)Cl")
-59

====

Categorized via melting point: 0 = under 60 °C, 1 = from 60 °C up to 200 °C, 2 = 200 °C and over

>>> class_name("c1ccc2sc(SN(C3CCCCC3)C3CCCCC3)nc2c1")
1
>>> class_name("O=C(O)c1cncc(C(=O)O)c1")
2
>>> class_name("COC(=O)c1ccc([N+](=O)[O-])c(O)c1")
1
>>> class_name("Cc1c(C)c(C)c2c(=O)n3ccccc3cc2c1C")
2
>>> class_name("CCCc1nc(OC(C)=O)n(-c2ccccc2)n1")
1
>>> class_name("N#Cc1sccc1Br")
0
>>> class_name("CC(=O)C1CCc2ccccc2C1=O (centres undefined)")
0
>>> class_name("CC1OC1P(=O)(O)O (centres undefined)")
1
>>> class_name("CC(=O)c1cc(Cl)sc1Cl")
0
>>> class_name("CCCCOC(=O)C1=C(C)NC(C)=C(C(=O)OCCCC)C1c1ccco1")
1
>>> class_name("O=C(Nc1ccccc1)c1cc([N+](=O)[O-])cc(S(=O)(=O)Nc2ccccc2)c1")
1
>>> class_name("O=[N+]([O-])c1ccc(N=Nc2ccc([N+](=O)[O-])cc2)cc1")
2
>>> class_name("OCc1ccc(F)cc1Cl")
0
>>> class_name("CC(CN1CC(=O)NC(=O)C1)N1CC(=O)NC(=O)C1 (centres undefined)")
2
>>> class_name("N#Cc1cc(C(F)(F)F)ccc1Cl")
0
>>> class_name("N#CCON=C(C#N)c1ccccc1")
0
>>> class_name("COC(=O)CCC(C)C1CCC2C3C(O)C(O)C4CC(O)CCC4(C)C3CC(O)C12C (centres undefined)")
1
